Target: Nuclear receptor subfamily 1 group I member 2 (Homo sapiens)
Assay: Human pregnane X receptor (PXR) activation by small molecules, qHTS assay (AID 1346985); further: on the % scale 0 is the no-effect control and ±100 the full control effect; nearly all actives have a fitted effect of over 40% in size
Settings: DPX-2 HepG2 CYP3A4-luciferase, 24 h; series mostly up to 38.3 µM
Excerpt: National Center for Advancing Translational Sciences [NCATS] NIH Chemical Genomics Center [NCGC] U.S. Environmental Protection Agency [EPA] National Institutes of Environmental Health Sciences [NIEHS] National Toxicology Program [NTP] The Pregnane X receptor (PXR), a ligand activated nuclear receptor plays a critical role in the regulation of genes involved in drug metabolism and transporters. Activation of PXR may be involved in the unwanted adverse drug-drug interactions. […]
Records with an inconclusive call do not appear. Active and inactive are the calls of the source. The call rests on the fitted dose curve; in most records, active means well fitted activation curve with a large enough effect in the repeat runs; inconclusive means weak or mixed curves; inactive means flat fitted curve, though single readings scatter.
ASSAY_READOUT: outcome

Consider the worked cases shown below.
CN1CCN(c2cc3c(nn2)Oc2ccccc2N3C)CC1 :: inactive
[O-][n+]1cccc(CO)c1 :: inactive
CC(=O)NC(=O)c1ccccc1O :: inactive
C[N+](C)(C)CCCCCCCCCC[N+](C)(C)C :: inactive
CO/N=C(\C(=O)N[C@@H]1C(=O)N2C(C(=O)O)=C(CSc3nc(=O)c(O)nn3C)CS[C@H]12)c1csc(N)n1 :: inactive

Now take the following compound into account.
Request: Recorded outcome of CC(=O)Nc1ccc(OCC(O)CNC(C)C)cc1 (stereo unspecified) , please.
Response: inactive

###

experiment: qHTS assay to identify small molecule agonists of the androgen receptor (AR) signaling pathway in the presence of an antagonist - cell viability counter screen (AID 1259379); settings: MDA-kb2 viability, CellTiter-Fluor, 16 h; series mostly up to 92.4 µM;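 further: MDA-kb2 human breast cancer cells carrying an MMTV luciferase reporter; on the % scale 0 is the no-effect control and ±100 the full control effect; nearly all actives have a fitted effect of over 25% in size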
Results filed as inconclusive are left out. Active and inactive are the calls of the source. The call rests on the fitted dose curve; in most records, active means well fitted cell-killing curve with a large enough effect in the repeat runs; inconclusive means weak or mixed curves, or effect the other way; inactive means flat fitted curve, though single readings scatter.
ASSAY_READOUT: activity change, negative = cytotoxicity

Example entries and their recorded answers appear below.
Cc1coc2ccccc2c1=O :: inactive
CCCCc1nc(Cl)c(CO)n1Cc1ccc(-c2ccccc2-c2nn[nH]n2)cc1 :: inactive
C[N+]1(CC2COC(c3ccccc3)(c3ccccc3)O2)CCCCC1 (stereo unspecified) :: 4% [at 19 µM] (inactive)
NC(N)=NCCN1CCCCCCC1 :: -1.24% [at 0.35 µM] (inactive)
CN(C)[C@@H]1C(=O)C(C(=O)NCN2CCCC2)=C(O)[C@@]2(O)C(=O)C3=C(O)c4c(O)cccc4[C@@](C)(O)C3C[C@@H]12 (stereo partly specified) :: inactive

Continue with the compound presented below.
Request: Can you share its activity change, negative = cytotoxicity? I mean this compound: CCC(C(=O)NC(=O)NC(C)=O)c1ccccc1 (stereo unspecified)
Response: inactive

###

assay: qHTS assay to identify small molecule antagonists of the constitutive androstane receptor (CAR) signaling pathway - cell viability counter screen (AID 1224837); conditions: HepG2-CYP2B6-hCAR viability, CellTiter-Fluor, 23 h, co-treated with 50 nM CITCO; series mostly up to 92.4 µM; further: on the % scale 0 is the no-effect control and ±100 the full control effect; nearly all actives have a fitted effect of over 45% in size
Results filed as inconclusive are left out. Activity calls are given as the source filed them. The call rests on the fitted dose curve; in most records, active means well fitted cell-killing curve with a large enough effect in the repeat runs; inconclusive means weak or mixed curves, or effect the other way; inactive means flat fitted curve, though single readings scatter. Where a SMILES comes first, the peptide text is derived from it. [ ]: non-standard residue; d: D form. pGlu = O=C1CC[C@@H](C(=O)O)N1
ASSAY_READOUT: activity change, negative = cytotoxicity

# annotated cases, reported activity change, negative = cytotoxicity shown
CCO[Si](OCC)(OCC)c1ccccc1 :: inactive
CC(=O)c1ccccc1[N+](=O)[O-] :: inactive
CCCCCCCCCC[N+](C)(C)[O-] :: inactive
[K+] :: inactive
CC(C)=CCC/C(C)=C/C#N :: inactive
CC(C)(N)C#N :: inactive

Request: activity change, negative = cytotoxicity lookup needed for CC[N+](CC)(CC(=O)Nc1c(C)cccc1C)Cc1ccccc1 (tested in a mixture with another compound) , thanks.
Response: inactive

Request: Consider next the compound CCNC(=O)[C@@H]1CCCN1C(=O)[C@H](CCCN=C(N)N)NC(=O)[C@H](CC(C)C)NC(=O)CNC(=O)[C@H](Cc1ccc(O)cc1)NC(=O)[C@H](CO)NC(=O)[C@H](Cc1c[nH]c2ccccc12)NC(=O)[C@H](Cc1cnc[nH]1)NC(=O)[C@@H]1CCC(=O)N1 ([pGlu]HWSYGLRP-NHEt) in the same way.
Response: inactive

Request: And then O=S(=O)(O)c1cccc2c(S(=O)(=O)O)cccc12 , what is it?
Response: inactive

Request: Now this one: CCOC(=O)c1ccccc1
Response: inactive

Request: Could you do the same for O=[N+]([O-])c1cncn1CCN1CCOCC1 , please?
Response: inactive

###

assay: qHTS assay to identify small molecule antagonists of the estrogen receptor alpha (ER-alpha) signaling pathway - cell viability counter screen (AID 743074); settings: ERalpha-bla HEK293 viability, CellTiter-Glo luminescence, 18 h; series mostly up to 69.4 µM;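 further: HEK293 cells carrying ER-alpha-UAS-bla reporter stimulated with 17beta-estradiol; on the % scale 0 is the no-effect control and ±100 the full control effect; nearly all actives have a fitted effect of over 45% in size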
Inconclusive results are not listed. Calls of active or inactive are those of the source. Calls come from the whole dose curve.
ASSAY_READOUT: outcome

CCOC(=O)C1=NOC(c2ccccc2)(c2ccccc2)C1 :: inactive
CCCC[N+](C)(CCCC)CCCC :: inactive
O=Cc1cccc(Br)c1 :: inactive
CN(C)C(=O)Oc1cccc([N+](C)(C)C)c1 :: inactive
[K+] :: inactive

Here's the next entry for you.
Request: Given the molecule CC(C)(CCC(=O)O)C(=O)O , what is its reported outcome?
Response: inactive

###

test: qHTS assay to identify small molecule agonists of the retinoic acid receptor (RAR) signaling pathway (AID 1159553); settings: C3RL4 RARE luciferase reporter, agonist, 6 h; series mostly up to 73.3 µM; on activation: on the % scale 0 is the no-effect control and ±100 the full control effect
Records with an inconclusive call do not appear. Activity calls are given as the source filed them. Calls come from the whole dose curve; as a rule, active = well fitted activation curve with a large enough effect in the repeat runs; inconclusive = weak or mixed curves, or effect the other way; inactive = no such curve, though single readings can be large or run the other way.
Hi! Could you answer with just one of these? yes (1) for active, no (0) for inactive

O=C(c1ccccc1O)c1ccccc1O :: no (0)

Request: For C[N+](C)(C)CCCCCCCCCC[N+](C)(C)C , what call appears in the results of this test?
Response: no (0)

Request: One more molecule: Nc1ccccn1
Response: no (0)

Request: Item: CN1CCN(c2cc3c(nn2)Oc2ccccc2N3C)CC1
Response: yes (1)

Request: Then this molecule: CCN1C=CN(C)C1C (configuration not stated)
Response: no (0)

Request: Record: CCC1C(=O)OCC1Cc1cncn1C (configuration not stated)
Response: no (0)

Request: Same question, Nc1c2c(nc3c1CCC3)CCCC2 this time
Response: no (0)

###

assay: qHTS assay to identify small molecule antagonists of the estrogen receptor alpha (ER-alpha) signaling pathway using the BG1 cell line in the presence of 0.1 nM 17-beta-estradiol - cell viability counter screen (AID 1259241); details: VM7Luc4E2 (BG1) viability, CellTiter-Fluor protease, 22 h, 0.1 nM estradiol agonist added; series mostly up to 92.4 µM; further: on the % scale 0 is the no-effect control and ±100 the full control effect; nearly all actives have a fitted effect of over 40% in size
Results filed as inconclusive are left out. The source made the active and inactive calls. The call rests on the fitted dose curve; in most records, active means well fitted cell-killing curve with a large enough effect in the repeat runs; inconclusive means weak or mixed curves, or effect the other way; inactive means flat fitted curve, though single readings scatter.
ASSAY_READOUT: activity change, negative = cytotoxicity

Nc1ccncc1N :: inactive
Cc1ccc(C(=O)Nc2ccc(S(=O)(=O)O)c3cc(S(=O)(=O)O)cc(S(=O)(=O)O)c23)cc1NC(=O)c1cccc(NC(=O)Nc2cccc(C(=O)Nc3cc(C(=O)Nc4ccc(S(=O)(=O)O)c5cc(S(=O)(=O)O)cc(S(=O)(=O)O)c45)ccc3C)c2)c1 :: inactive
CCC(C(=O)NC(=O)NC(C)=O)c1ccccc1 (stereo unspecified) :: inactive
Clc1cc(Cl)c(Cl)nc1Cl :: inactive

Request: So what's the measured activity change, negative = cytotoxicity for this one? C[C@@H]1CCC[C@H](C)N1
Response: inactive

Request: Next entry: COCCOC[C@H](CC1(C(=O)NC2CCC(C(=O)O)CC2)CCCC1)C(=O)Oc1ccc2c(c1)CCC2 (stereo partly specified)
Response: inactive

Request: Moving on to the next compound: NCCCC(N)(C(=O)O)C(F)F (stereo unspecified)
Response: inactive

Request: Another compound to check: N[C@H](C(=O)O)[C@@H](O)c1ccc(O)c(O)c1
Response: inactive

Request: And what about the compound [Ca+2] ?
Response: inactive

Request: Also CCN[C@H]1C[C@H](C)S(=O)(=O)c2sc(S(N)(=O)=O)cc21 , if possible.
Response: inactive

Request: Now give it for C1CCC2(CCCCO2)OC1 too.
Response: inactive

###

assay: qHTS assay to identify small molecule agonists of the farnesoid-X-receptor (FXR) signaling pathway - cell viability counter screen (AID 743218); details: FXR-bla HEK293T viability, CellTiter-Glo luminescence, 16 h; series mostly up to 62.6 µM; further: on the % scale 0 is the no-effect control and ±100 the full control effect; nearly all actives have a fitted effect of over 45% in size
Inconclusive results are not listed. Active and inactive are the calls of the source. Calls come from the whole dose curve; as a rule, active = well fitted cell-killing curve with a large enough effect in the repeat runs; inconclusive = weak or mixed curves, or effect the other way; inactive = no such curve, though single readings can be large or run the other way.
ASSAY_READOUT: viability change, negative = cytotoxic

Recorded viability change, negative = cytotoxic, per entry:
C=CCOCC(O)CO (stereo not drawn) :: inactive
CN1CCC(=C2c3ccccc3CCc3cccnc32)CC1 :: inactive
NC(N)=NCCN1CCCCCCC1 :: 2.57% [at 0.55 µM] (inactive)
CCN[C@@H]1C[C@H](N)[C@@H](OC2OC(CN)=CCC2N)[C@H](O)[C@H]1O[C@H]1OC[C@](C)(O)[C@H](NC)[C@H]1O (stereo partly drawn) :: 10.1% [at 0.55 µM] (inactive)
CCN1CCOCC1 :: inactive

Request: Tell me the measured viability change, negative = cytotoxic of Cc1ccc(C(=O)c2ccccc2)cc1 , please.
Response: inactive

Request: Also check CC1OC1C1CCC2(C)OC2C1 (stereo not drawn)
Response: inactive

Request: One more compound: CCC(C)(CCCC(C)C)OC(C)=O (stereo not drawn)
Response: inactive

Request: Repeat for the following compound: C[N+]1(C)CCCC(OC(=O)C(O)(c2ccccc2)c2ccccc2)C1 (stereo not drawn)
Response: inactive

From: PubChem BioAssay (Tox21)
